Test system: SRY-box transcription factor 2 (SOX2) Protein Expression, Deisenroth Lab, SOX2 (gene 6657)
assay remarks: CCTE_Deisenroth_DEVTOX-GLR_legacy_Sox2: (Legacy) CCTE's DevTox GLR-Endo Assay Evaluation of SRY-box transcription factor 2 (SOX2) Protein Expression, Deisenroth Lab (AID 2284346)
Method: CCTE_Deisenroth_DEVTOX-GLR_legacy assay is a cell-based, multiplex-readout assay that uses RUES2-GLR, a human pluripotent cell line, with measurements taken at 48 hours after chemical dosing in a 384-well microplateCCTE_Deisenroth_DEVTOX-GLR_legacy_Sox2 is one of 4 assay components calculated from the CCTE_Deisenroth_DEVTOX-GLR_legacy assay that measures an increase in the percentage of cells in an ectodermal or pluripotent state. […]
Active and inactive are the calls of the source. Rule for the calls: active = hit-call score of the fitted dose curve at least 0.9, where 1 is the maximum; inactive = score below 0.9. *1 amine or outer side, *2 acyl side, *3 side chain or, on linkers, in order; H or OH if unused. Where a SMILES comes first, the peptide text is derived from it. Bridges are numbered along the chain shown (N, C = ends). Roman numbers before positions name the chains, in order. [ ]: non-standard residue; d: D form. Actinocin(9to1) = Cc1c2oc3c(C)ccc(C(=O)[*:1])c3nc-2c(C(=O)[*:2])c(N)c1=O; NMeV = CN[C@H](C(=O)O)C(C)C; Sar = CNCC(=O)O
Thanks in advance; please answer with one of these: active, inactive

Qu. Per the assay record, what outcome was assigned to CCCCCN=C(N)N/N=C/c1c[nH]c2ccc(OC)cc12 ?
Ans. inactive

Qu. Per the assay record, what outcome was assigned to Cc1c2oc3c(C)ccc(C(=O)N[C@@H]4C(=O)N[C@H](C(C)C)C(=O)N5CCC[C@H]5C(=O)N(C)CC(=O)N(C)[C@@H](C(C)C)C(=O)O[C@@H]4C)c3nc-2c(C(=O)N[C@@H]2C(=O)N[C@H](C(C)C)C(=O)N3CCC[C@H]3C(=O)N(C)CC(=O)N(C)[C@@H](C(C)C)C(=O)O[C@@H]2C)c(N)c1=O (I: T[dV]P[Sar][NMeV] / II: T[dV]P[Sar][NMeV]; ester I:1-I:C, II:1-II:C; linker I:N-II:N via Actinocin(9to1)) ?
Ans. active

Qu. Per the assay record, what outcome was assigned to Cc1nc(Nc2ncc(C(=O)Nc3c(C)cccc3Cl)s2)cc(N2CCN(CCO)CC2)n1 ?
Ans. active
